Taken from patent US11793803B2.

procedure.details: Solubility in different solvents (supersaturated solution, filtrate analysed by HPLC)
cond: ethyl acetate, organic solvent or mixture, thermodynamic from solid
readout.kind: solubility at 30 min (µg/mL)
Report the value in µg/mL with no unit label.

Input line: Given the entry `CC[C@@]1(O)C(=O)OCc2c1cc1n(c2=O)Cc2cc3ccccc3nc2-1` , report its measured solubility at 30 min.
Output line: 134
